Exercise: for every item that follows, state its recorded ELISA value.
target: T1, TfR1 (human, Sino Biological Inc.) (human, UniProt P02786 89-760); experiment: ELISA, protein coated at 20 ug/mL, 2 ug/mL TfR1, anti-TfR1 detection
T1 construct: Bought protein; the catalogue number printed for it (11020-MM02) is the same as that printed for the anti-TfR1 primary antibody, so the construct cannot be told; also called TfFR1; receptor TfR1
T1 sequence (P02786 89-760 limits assumed): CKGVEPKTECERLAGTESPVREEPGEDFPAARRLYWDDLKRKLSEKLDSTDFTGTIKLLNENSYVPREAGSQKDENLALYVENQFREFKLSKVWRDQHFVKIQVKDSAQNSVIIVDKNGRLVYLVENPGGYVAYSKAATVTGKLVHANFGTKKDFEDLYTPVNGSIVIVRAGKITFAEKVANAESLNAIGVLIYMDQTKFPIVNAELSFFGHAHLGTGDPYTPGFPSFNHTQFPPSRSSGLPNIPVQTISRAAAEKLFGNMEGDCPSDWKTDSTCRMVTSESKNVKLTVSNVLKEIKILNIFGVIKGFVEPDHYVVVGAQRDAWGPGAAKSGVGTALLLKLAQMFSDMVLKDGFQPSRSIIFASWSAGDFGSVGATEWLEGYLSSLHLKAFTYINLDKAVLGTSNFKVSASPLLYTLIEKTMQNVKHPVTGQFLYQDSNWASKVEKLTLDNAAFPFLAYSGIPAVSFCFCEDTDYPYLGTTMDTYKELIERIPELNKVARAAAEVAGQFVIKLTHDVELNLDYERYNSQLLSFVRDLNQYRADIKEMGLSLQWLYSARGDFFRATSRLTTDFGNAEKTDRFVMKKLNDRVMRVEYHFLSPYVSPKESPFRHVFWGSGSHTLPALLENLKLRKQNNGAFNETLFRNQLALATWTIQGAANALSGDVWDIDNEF
Give the quantity in OD630, number only.

Lookup: Given the binder C terminal (designed binder) MSSQIRQNYSTDVEAAVNSLVNLYLQASYTYLSLGFYFDRDDVALEGVSHFFRELAEEKREGYERLLKMQNQRGGRALFQDIKKPAEDEWESGLNAMECALHLEKKLNQALLDLHALGSARTDPHLCDFLETHFLDEEVKLIKKMGDHLTNLRKMGAPEAGLGEYLFERLTLKHD , write its reported ELISA value.
Found: 0.1

Lookup: Given the binder N-loop (designed binder, expressed in E. coli from PET22b; Purity of target protein 77.1%; also called N-loop modified protein) MSSQIRQNYHQDSEAAVNRQINLYLQASYTYLSLGFYFDRDDVALEGVSHFFRELAEEKREGYERLLKMQNQRGGRIFLQDIKKPDCDEWGKTPDAMKAAMALEKKLNQALLDLHKLATDKNDPHLCDFLETHFLDEEVKLIKKMGDHLTNLHRLGGPEAGLGEYLFERLTLKHD , write its reported ELISA value.
Found: 1.17
